Known in vivo MRT_(hr)_Human of a selection of compounds
# appliedConditions: human
Write down the numeric answer in h and omit the unit.

{"compound": "CN(C)Cc1nnc2n1-c1ccc(Cl)cc1C(c1ccccc1)=NC2", "in vivo MRT_(hr)_Human / h": 2.634}

q: Please report the recorded in vivo MRT_(hr)_Human for CC1CCCC(C)N1CCCC(O)(c1ccccc1)c1ccccn1 (centres unmarked) .
a: 12.500

q: Please report the recorded in vivo MRT_(hr)_Human for CCCCCc1cc(O)c2c(c1)OC(C)(C)[C@@H]1CCC(C)=C[C@@H]21 [Tetrahydrocannabinol] .
a: 46.354

q: Please report the recorded in vivo MRT_(hr)_Human for CCOc1ccc(NC(C)=O)cc1 .
a: 1.111

q: Please report the recorded in vivo MRT_(hr)_Human for NS(=O)(=O)c1cc(C2(O)NC(=O)c3ccccc32)ccc1Cl (centres unmarked) .
a: 43.333

q: Please report the recorded in vivo MRT_(hr)_Human for Cc1ccc(-c2nc3ccc(C)cn3c2CC(=O)N(C)C)cc1 .
a: 2.093

q: Please report the recorded in vivo MRT_(hr)_Human for O=c1[nH]cnc2c1ncn2[C@H]1CC[C@@H](CO)O1 .
a: 1.197

q: Please report the recorded in vivo MRT_(hr)_Human for COC(=O)C1=C(C)NC(C)=C(C(=O)OCC(C)C)C1c1ccccc1[N+](=O)[O-] (centres unmarked) .
a: 6.111

q: Please report the recorded in vivo MRT_(hr)_Human for CCN1CCC[C@H]1CNC(=O)c1c(OC)ccc(Br)c1OC [Remoxipride] .
a: 6.373

q: Please report the recorded in vivo MRT_(hr)_Human for CN[C@@H]1CCc2[nH]c3ccc(C(N)=O)cc3c2C1 .
a: 24.000

q: Please report the recorded in vivo MRT_(hr)_Human for CC(=O)O[C@H]1C[C@@H]2CC[C@@H]3[C@H](CC[C@@]4(C)[C@H]3C[C@H]([N+]3(C)CCCCC3)[C@@H]4OC(C)=O)[C@@]2(C)C[C@@H]1N1CCCCC1 [Vecuronium Bromide] .
a: 1.111

###

# measurementDescription: Measurement of Rb (blood-to-plasma concentration ratio) in spiked human blood, LC-MS/MS
# Assay type: in vitro ADME
# appliedConditions: heparinized human whole blood, footnote a: Rb is our experimental data, read-out: Rb_Human (blood-to-plasma concentration ratio)
Known blood plasma ratio at 30 min, 5 µM of a selection of molecules

q: Please report the recorded blood plasma ratio at 30 min, 5 µM for O=C(O)CCNC(=O)c1ccccc1 [Betamipron] .
a: 0.59

q: Please report the recorded blood plasma ratio at 30 min, 5 µM for COc1ccc2c(c1)c(CC(=O)O)c(C)n2C(=O)c1ccc(Cl)cc1 [Indomethacin] .
a: 0.59

q: Please report the recorded blood plasma ratio at 30 min, 5 µM for O=C(O)Cc1ccccc1Nc1c(Cl)cccc1Cl [Diclofenac] .
a: 0.6
